Origin of values: PubChem BioAssay AID1963438

Catalogue of viability, T/C values
System: NCI-H510 multicellular tumor spheroid growth, % test/control
assay-procedure: Anticancer human tumor NCI-H510 cell line growth inhibition [Asc];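 also: spheroids exposed to agents for 7 days; 100% = DMSO vehicle control wells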
reported-conditions: second compound 0.3 µM; first compound 0.316 µM; hits give low values
I only need the number, in %, no unit after it.

The cases that follow already have their viability, T/C on record.
compound | measurement-label | assay-value
CNC(C)C(=O)NC1CN(S(=O)(=O)c2cccc(S(=O)(=O)N3CCC4CCC(C(=O)NC(c5ccccc5)c5ccccc5)N4C(=O)C(NC(=O)C(C)NC)C3)c2)CCC2CCC(C(=O)NC(c3ccccc3)c3ccccc3)N2C1=O (centres undefined) + CCN1C(C(=O)NC23CCC(C(=O)O)(CC2)CC3)C(c2cccc(Cl)c2F)C2(C(=O)Nc3cc(Cl)ccc32)C12CCCCC2 | viability, T/C | 89.8
C=C(F)C(=O)N1CCN(c2nc(OCC3CCCN3C)nc3c2CCN(c2cccc4cccc(Cl)c24)C3)CC1CC#N (centres undefined) + CCN1C(C(=O)NC23CCC(C(=O)O)(CC2)CC3)C(c2cccc(Cl)c2F)C2(C(=O)Nc3cc(Cl)ccc32)C12CCCCC2 | viability, T/C | 109
COc1c(OCCCN2CCOCC2)ccc2c3n(c(=NC(=O)c4cnc(N)nc4)nc12)CCN3 + CCN1C(C(=O)NC23CCC(C(=O)O)(CC2)CC3)C(c2cccc(Cl)c2F)C2(C(=O)Nc3cc(Cl)ccc32)C12CCCCC2 | viability, T/C | 95.6

// below: viability, T/C requested for another compound
Given the compound O=C(c1ccc(F)c(F)c1Nc1ccc(I)cc1F)N1CC(O)([C@@H]2CCCCN2)C1 + CCN1C(C(=O)NC23CCC(C(=O)O)(CC2)CC3)C(c2cccc(Cl)c2F)C2(C(=O)Nc3cc(Cl)ccc32)C12CCCCC2 , what is its reported viability, T/C?
117

====

Catalogue of viability, T/C values
Tested on: NCI-H510 multicellular tumor spheroid growth, % test/control
assay-procedure: Anticancer human tumor NCI-H510 cell line growth inhibition [Asc];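 also: spheroids exposed to agents for 7 days; 100% = DMSO vehicle control wells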
reported-conditions: second compound 0.316 µM; first compound 3.16 µM; hits give low values
From the text: Multicellular complex tumor spheroid response to apoptosis pathway targeting inhibitors Alrizomadlin, Pelcitoclax, and Dasminapant in combination with a variety of drugs and investigational agents in selected tumor cell lines […] Compounds. […] If the clinical Cmax for an agent had not been determined, the highest concentration tested was 10 microM. […]
I only need the number, in %, no unit after it.

compound | viability, T/C (%)
O=C(c1cc(Cc2n[nH]c(=O)c3ccccc23)ccc1F)N1CCN(C(=O)C2CC2)CC1 + Cc1c(S(C)(=O)=O)c(-c2cc(F)cc(N3CCN(c4ccc(NS(=O)(=O)c5ccc(NC(CCN6CCC(C(=O)OCCCP(=O)(O)O)CC6)CSc6ccccc6)c(S(=O)(=O)C(F)(F)F)c5)cc4)CC3)c2)c(-c2ccc(Cl)cc2)n1C(C)C | 8.58
C=C(F)C(=O)N1CCN(c2nc(OCC3CCCN3C)nc3c2CCN(c2cccc4cccc(Cl)c24)C3)CC1CC#N (stereo not drawn) + Cc1c(S(C)(=O)=O)c(-c2cc(F)cc(N3CCN(c4ccc(NS(=O)(=O)c5ccc(NC(CCN6CCC(C(=O)OCCCP(=O)(O)O)CC6)CSc6ccccc6)c(S(=O)(=O)C(F)(F)F)c5)cc4)CC3)c2)c(-c2ccc(Cl)cc2)n1C(C)C | 0.67
C#Cc1c(F)ccc2cc(O)cc(-c3ncc4c(N5CC6CCC(C5)N6)nc(OCC56CCCN5CC(F)C6)nc4c3F)c12 (stereo not drawn) + Cc1c(S(C)(=O)=O)c(-c2cc(F)cc(N3CCN(c4ccc(NS(=O)(=O)c5ccc(NC(CCN6CCC(C(=O)OCCCP(=O)(O)O)CC6)CSc6ccccc6)c(S(=O)(=O)C(F)(F)F)c5)cc4)CC3)c2)c(-c2ccc(Cl)cc2)n1C(C)C | 89.9
C=CC(=O)N1CCN(c2nc(=O)n(-c3c(C)ccnc3C(C)C)c3nc(-c4c(O)cccc4F)c(F)cc23)C(C)C1 (stereo not drawn) + CNC(C)C(=O)NC1CN(S(=O)(=O)c2cccc(S(=O)(=O)N3CCC4CCC(C(=O)NC(c5ccccc5)c5ccccc5)N4C(=O)C(NC(=O)C(C)NC)C3)c2)CCC2CCC(C(=O)NC(c3ccccc3)c3ccccc3)N2C1=O | 104
O=C(c1cc(Cc2n[nH]c(=O)c3ccccc23)ccc1F)N1CCN(C(=O)C2CC2)CC1 + CNC(C)C(=O)NC1CN(S(=O)(=O)c2cccc(S(=O)(=O)N3CCC4CCC(C(=O)NC(c5ccccc5)c5ccccc5)N4C(=O)C(NC(=O)C(C)NC)C3)c2)CCC2CCC(C(=O)NC(c3ccccc3)c3ccccc3)N2C1=O | 89.1

Given the compound C#Cc1c(F)ccc2cc(O)cc(-c3ncc4c(N5CC6CCC(C5)N6)nc(OCC56CCCN5CC(F)C6)nc4c3F)c12 (stereo not drawn) + CNC(C)C(=O)NC1CN(S(=O)(=O)c2cccc(S(=O)(=O)N3CCC4CCC(C(=O)NC(c5ccccc5)c5ccccc5)N4C(=O)C(NC(=O)C(C)NC)C3)c2)CCC2CCC(C(=O)NC(c3ccccc3)c3ccccc3)N2C1=O , what is its reported viability, T/C?
97.7

Given the compound C=CC(=O)N1CCN(c2nc(=O)n(-c3c(C)ccnc3C(C)C)c3nc(-c4c(O)cccc4F)c(F)cc23)C(C)C1 (stereo not drawn) + Cc1c(S(C)(=O)=O)c(-c2cc(F)cc(N3CCN(c4ccc(NS(=O)(=O)c5ccc(NC(CCN6CCC(C(=O)OCCCP(=O)(O)O)CC6)CSc6ccccc6)c(S(=O)(=O)C(F)(F)F)c5)cc4)CC3)c2)c(-c2ccc(Cl)cc2)n1C(C)C , what is its reported viability, T/C?
109

Given the compound C=C(F)C(=O)N1CCN(c2nc(OCC3CCCN3C)nc3c2CCN(c2cccc4cccc(Cl)c24)C3)CC1CC#N (stereo not drawn) + CNC(C)C(=O)NC1CN(S(=O)(=O)c2cccc(S(=O)(=O)N3CCC4CCC(C(=O)NC(c5ccccc5)c5ccccc5)N4C(=O)C(NC(=O)C(C)NC)C3)c2)CCC2CCC(C(=O)NC(c3ccccc3)c3ccccc3)N2C1=O , what is its reported viability, T/C?
4.39
